- Test target: human GLP-1 receptor (human, UniProt P43220 24-463)
- Test details: cell-based or functional assay
Starred links: 1 amine or outer side, 2 acyl side, 3 side chain; linkers in the order of their positions; H or OH if unused. Non-standard residues stand in square brackets, D forms with d. Groups on a side chain read outwards from the residue. Primed or numbered codes have the meaning given here. No end group written: not given here. *: point of attachment. C20 diacid = O=C(O)CCCCCCCCCCCCCCCCCCC(=O)*; C18 diacid = O=C(O)CCCCCCCCCCCCCCCCC(=O)*; γGlu = O=C(O)[C@H](CCC(=O)[*:2])N[*:1]; αMeF = C[C@](N)(Cc1ccccc1)C(=O)O; PEG4 = NCCOCCOCCOCCOCCC(=O)O; PEG4′ = polyethylene glycol; AEEA = NCCOCCOCC(=O)O; Aib = CC(C)(N)C(=O)O
Overview of recorded hGLP-1R EC50 (pM), cAMP for various binders
Measurement kind: hGLP-1R EC50 (pM), cAMP

binder="H[Aib]QGTFTSDVSK[αMeF]LDSRAAKDFVQWIANT-NH2 (not fully specified (residue 20)) [Peptide 343]" value_units=pM value=198
binder="H[Aib]HGS[αMeF]TSDVSKYLDSRAAK([AEEA-AEEA-γGlu-γGlu-C20 diacid])D[αMeF]VQ[Aib]IANT-NH2 (also: F6: αMePhe per table, X13: αMePhe, Y per table) [Peptide 283]" value_units=pM value=129
binder="H[Aib]HGS[αMeF]TSDVSK[αMeF]LDSRAAK([PEG4′-γGlu-γGlu-C20 diacid])D[αMeF]VQ[Aib]IANT-NH2 [Peptide 269]" value_units=pM value=52
binder="H[Aib]HGS[αMeF]TSDVSK[αMeF]LDSRAAK([AEEA-γGlu-AEEA-C18 diacid])D[αMeF]VQ[Aib]IANT-NH2 [Peptide 259]" value_units=pM value=19.1
binder="H[Aib]HGS[αMeF]TSDVSKYLDSRAAKDFVQWIANT-NH2 (not fully specified (residue 20); also: F6: αMePhe per table) [Peptide 292]" value_units=pM value=28.7
binder="H[Aib]HGS[αMeF]TSDVSK[αMeF]LDSRAAK([AEEA-AEEA-γGlu-C18 diacid])D[αMeF]VE[Aib]IANT-NH2 [Peptide 227]" value_units=pM value=70.5
binder="H[Aib]QGTFTSDVSE[αMeF]LDSERAK([AEEA-AEEA-γGlu-C18 diacid])DFVRWLEAGG-OH (not fully specified) [Peptide 524]" value_units=pM value=366
binder="H[Aib]HGS[αMeF]TSDVSK[αMeF]LDSRAAK([γGlu-γGlu-C20 diacid])D[αMeF]VQ[Aib]IANT-NH2 [Peptide 275]" value_units=pM value=111
binder="H[Aib]HGS[αMeF]TSDVSK[αMeF]LDSRAAK([PEG4-γGlu-C20 diacid])D[αMeF]VQ[Aib]IANT-NH2 [Peptide 267]" value_units=pM value=65.6
